target: UniProt P47747; assay: Agonistic activity relative to histamine on electrically stimulated papillary muscle of guinea pig; assay type: functional, tissue-based; conditions: Muscle tissue
property_measured: pD2
The answer should be written as a number, with no unit following it.

Tell me reported pD2 for N=C(NCCCc1c[nH]cn1)NCCC(c1ccccc1)c1ccccn1 (stereo not given) , tested with UniProt P47747.
7.37

Tell me reported pD2 for N=C(NCCCc1c[nH]cn1)NCCC(c1ccc(Cl)cc1)c1ccccn1 (stereo not given) , tested with UniProt P47747.
7.39

Tell me reported pD2 for N=C(NCCCc1c[nH]cn1)NCCC(c1ccccc1)c1ccc(F)cc1 (stereo not given) , tested with UniProt P47747.
7.45

Tell me reported pD2 for N=C(NCCCc1c[nH]cn1)NCCC(c1ccc(C(F)(F)F)cc1)c1ccccn1 (stereo not given) , tested with UniProt P47747.
7.23

Tell me reported pD2 for N=C(NCCCc1c[nH]cn1)NCCC(c1ccc(Br)cc1)c1ccccn1 (stereo not given) , tested with UniProt P47747.
6.97

Tell me reported pD2 for N=C(NCCCc1c[nH]cn1)NCCC(c1ccc(F)cc1)c1ccccn1 (stereo not given) , tested with UniProt P47747.
7.94

Tell me reported pD2 for N=C(NCCCc1c[nH]cn1)NCCC(c1cccc(Cl)c1)c1ccccn1 (stereo not given) , tested with UniProt P47747.
7.71

Tell me reported pD2 for Cc1ccc(C(CC/N=C(\N)NCCCc2c[nH]cn2)c2ccccn2)cc1 (stereo not given) , tested with UniProt P47747.
7.15

Tell me reported pD2 for N=C(NCCCc1c[nH]cn1)NCCC(c1cc(F)cc(F)c1)c1ccccn1 (stereo not given) , tested with UniProt P47747.
7.91

Tell me reported pD2 for N=C(NCCCc1c[nH]cn1)NCCC(c1cccc(C(F)(F)F)c1)c1ccccn1 (stereo not given) , tested with UniProt P47747.
7.44

---

organism: Cavia porcellus; experiment: Relative potency with impromidine (100%) in isolated perfused guinea pig heart; type: functional
property_measured: Relative potency
The answer should be written as a number, with no unit following it.

// known answers, use as guide
INSERT INTO assay_data (molecule, property_measured, obs_value) VALUES
  ('N=C(NCCCc1c[nH]cn1)NCCC(c1ccc(Cl)cc1)c1ccccn1 (stereo not given)', 'Relative potency', 90),
  ('N=C(NCCCc1c[nH]cn1)NCCC(c1cccc(Cl)c1)c1ccccn1 (stereo not given)', 'Relative potency', 199),
  ('N=C(NCCCc1c[nH]cn1)NCCC(c1ccc(Cl)c(Cl)c1)c1ccccn1 (stereo not given)', 'Relative potency', 221),
  ('Cc1[nH]cnc1CSCCNC(=N)NCCCc1c[nH]cn1', 'Relative potency', 100),
  ('N=C(NCCCc1c[nH]cn1)NCCC(c1ccccc1)c1ccccn1 (stereo not given)', 'Relative potency', 63),
  ('N=C(NCCCc1c[nH]cn1)NCCC(c1ccc(F)cc1)c1ccccn1 (stereo not given)', 'Relative potency', 146),
  ('N=C(NCCCc1c[nH]cn1)NCCC(c1cc(F)cc(F)c1)c1ccccn1 (stereo not given)', 'Relative potency', 244),
  ('N=C(NCCCc1c[nH]cn1)NCCC(c1ccc(F)c(F)c1)c1ccccn1 (stereo not given)', 'Relative potency', 240);

What does the record list as Relative potency for Cc1ccc(C(CC/N=C(\N)NCCCc2c[nH]cn2)c2ccccn2)cc1 (stereo not given) ?
138

What does the record list as Relative potency for N=C(NCCCc1c[nH]cn1)NCCC(c1ccc(Br)cc1)c1ccccn1 (stereo not given) ?
61

---

Measured pD2 values are reported for all entries that follow.
biological target: Histamine H2 receptor (Cavia porcellus); assay: H2 receptor agonist activity relative to histamine on isolated right atrium of guinea pig; format: functional, tissue-based; conditions: Cardiac atrium
The answer should be written as a number, with no unit following it.

// known answers, use as guide
INSERT INTO results (compound, obs_value) VALUES
  ('N=C(NCCCc1c[nH]cn1)NCCC(c1ccccc1)c1ccc(Cl)cc1 (centres undefined)', 7.12),
  ('N=C(NCCCc1c[nH]cn1)NCCC(c1ccc(F)c(F)c1)c1ccccn1 (centres undefined)', 8.12),
  ('N=C(NCCCc1c[nH]cn1)NCCC(c1ccncc1)c1ccc(F)cc1 (centres undefined)', 7.63);

Now let's try a different one.
What does the record list as pD2 for N=C(NCCCc1c[nH]cn1)NCCC(c1ccccn1)c1ccccc1Cl (centres undefined) ?
7.35

---

target: Histamine H2 receptor (Cavia porcellus) (UniProt P47747); experiment: Agonistic activity relative to histamine on electrically stimulated papillary muscle of guinea pig; type: functional, tissue-based; conditions: Muscle tissue
Sequence (P47747 whole entry): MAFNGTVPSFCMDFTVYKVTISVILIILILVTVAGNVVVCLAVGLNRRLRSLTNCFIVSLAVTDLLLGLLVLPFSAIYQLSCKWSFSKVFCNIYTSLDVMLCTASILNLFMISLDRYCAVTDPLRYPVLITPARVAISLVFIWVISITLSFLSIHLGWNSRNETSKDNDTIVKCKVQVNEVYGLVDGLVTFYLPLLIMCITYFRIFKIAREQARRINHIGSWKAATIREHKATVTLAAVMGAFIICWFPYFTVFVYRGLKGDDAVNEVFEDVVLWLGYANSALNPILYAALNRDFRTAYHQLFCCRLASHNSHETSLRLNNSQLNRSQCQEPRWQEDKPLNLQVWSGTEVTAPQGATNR
Measured pD2 values are reported for all entries that follow.
The answer should be written as a number, with no unit following it.

// known answers, use as guide
INSERT INTO measurements (molecule, study_system, property_measured, obs_value) VALUES
  ('N=C(NCCCc1c[nH]cn1)NCCC(c1ccc(Cl)c(Cl)c1)c1ccccn1 (stereo not given)', 'Histamine H2 receptor (Cavia porcellus) (UniProt P47747)', 'pD2', 7.54),
  ('N=C(NCCCc1c[nH]cn1)NCCC(c1ccc(F)cc1)c1cccnc1 (stereo not given)', 'Histamine H2 receptor (Cavia porcellus) (UniProt P47747)', 'pD2', 7.91),
  ('COc1ccc(C(CC/N=C(\N)NCCCc2c[nH]cn2)c2ccccn2)cc1 (stereo not given)', 'Histamine H2 receptor (Cavia porcellus) (UniProt P47747)', 'pD2', 7);

What does the record list as pD2 for N=C(NCCCc1c[nH]cn1)NCCC(c1cccc(F)c1)c1ccccn1 (stereo not given) ?
7.79

What does the record list as pD2 for N=C(NCCCc1c[nH]cn1)NCCC(c1ccccc1)c1ccc(Cl)c(Cl)c1 (stereo not given) ?
6.03

---

Measured Kb values are reported for all entries that follow.
molecular target: Histamine H1 receptor (Cavia porcellus, UniProt P31389); assay: Antagonist activity at histamine H1 receptor against histamine in isolated ileum of guinea pig.; type: functional, tissue-based; conditions: read-out: pA2 (converted)
Sequence (P31389 whole entry): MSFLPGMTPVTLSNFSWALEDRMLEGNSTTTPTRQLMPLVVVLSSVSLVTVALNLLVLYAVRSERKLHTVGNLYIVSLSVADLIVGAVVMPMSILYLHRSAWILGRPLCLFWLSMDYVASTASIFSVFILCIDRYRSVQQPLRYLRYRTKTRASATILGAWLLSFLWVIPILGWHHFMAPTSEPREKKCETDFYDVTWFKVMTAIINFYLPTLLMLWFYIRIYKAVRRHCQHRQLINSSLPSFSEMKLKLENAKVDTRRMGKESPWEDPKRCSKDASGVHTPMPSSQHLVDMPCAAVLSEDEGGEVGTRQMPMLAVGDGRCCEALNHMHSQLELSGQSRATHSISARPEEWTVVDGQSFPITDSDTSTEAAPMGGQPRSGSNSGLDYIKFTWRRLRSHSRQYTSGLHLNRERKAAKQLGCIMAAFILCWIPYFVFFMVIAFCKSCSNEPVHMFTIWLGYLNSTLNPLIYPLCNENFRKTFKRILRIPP

INSERT INTO assay_data (compound, obs_value) VALUES
  ('N/C(=N\CCC(c1cccc([N+](=O)[O-])c1)c1ccccn1)NCCCc1c[nH]cn1 (stereo not drawn)', '1.7 µM'),
  ('N=C(NCCCc1c[nH]cn1)NCCC(c1ccccc1)c1ccc(Cl)cc1 (stereo not drawn)', '0.0977 µM'),
  ('N=C(NCCCc1c[nH]cn1)NCCC(c1ccc(Br)cc1)c1ccccn1 (stereo not drawn)', '0.12 µM'),
  ('N=C(NCCCc1c[nH]cn1)NCCC(c1ccccc1)c1ccccn1 (stereo not drawn)', '0.0977 µM'),
  ('N=C(NCCCc1c[nH]cn1)NCCC(c1ccc(Cl)cc1)c1ccccn1 (stereo not drawn)', '0.0776 µM'),
  ('N=C(NCCCc1c[nH]cn1)NCCC(c1cc(Cl)cc(Cl)c1)c1ccccn1 (stereo not drawn)', '0.0437 µM'),
  ('N=C(NC/C=C(\c1ccc(F)cc1)c1ccccn1)NCCCc1c[nH]cn1', '0.347 µM');

Now let's try a different one.
Tell me reported Kb for N=C(NCCCc1c[nH]cn1)NCCC(c1ccccc1)c1ccc(F)cc1 (stereo not drawn) , tested with Histamine H1 receptor (Cavia porcellus, UniProt P31389).
0.0347 µM

---

target: Histamine H2 receptor (Cavia porcellus); test: Potency relative to histamine calculated from mean pD2 value in guinea pig right atrium.; assay type: functional, tissue-based; conditions: Cardiac atrium
Measured Relative potency values are reported for all entries that follow.
The answer should be written as a number, with no unit following it.

INSERT INTO assay_data (molecule, property_measured, obs_value) VALUES
  ('N=C(NCCCc1c[nH]cn1)NCCC(c1ccccn1)c1cccs1 (stereo unspecified)', 'Relative potency', 14.5),
  ('N/C(=N\CCC(c1cccc([N+](=O)[O-])c1)c1ccccn1)NCCCc1c[nH]cn1 (stereo unspecified)', 'Relative potency', 8.1),
  ('N=C(NCCCc1c[nH]cn1)NCCC(c1cccc(Cl)c1)c1ccccn1 (stereo unspecified)', 'Relative potency', 87.1),
  ('N=C(NCCCc1c[nH]cn1)NCCC(c1ccc(Br)cc1)c1ccccn1 (stereo unspecified)', 'Relative potency', 30.2),
  ('N=C(NCCCc1c[nH]cn1)NCCSC(c1ccccc1)c1ccccn1 (stereo unspecified)', 'Relative potency', 4);

Now let's try a different one.
Tell me reported Relative potency for N=C(NCCCc1c[nH]cn1)NCCC(c1ccccc1)c1ccc(Cl)c(Cl)c1 (stereo unspecified) , tested with Histamine H2 receptor (Cavia porcellus).
28.8

---

biological target: Histamine H2 receptor (Cavia porcellus) (UniProt P47747); assay: Potency relative to histamine calculated from mean pD2 value in guinea pig right atrium.; type: functional, tissue-based; settings: Cardiac atrium
Measured Relative potency values are reported for all entries that follow.
The answer should be written as a number, with no unit following it.

// known answers, use as guide
INSERT INTO results (molecule, obs_value) VALUES
  ('N=C(NCCCc1c[nH]cn1)NCCC(c1ccc(Cl)cc1)c1ccccn1 (stereo not given)', 69.2),
  ('N=C(NCCCc1c[nH]cn1)NCCC(c1ccccc1)c1ccc(F)cc1 (stereo not given)', 53.7),
  ('N=C(NCCCc1c[nH]cn1)NCC(c1ccccc1)c1ccccn1 (stereo not given)', 2.2),
  ('N=C(NCCCc1c[nH]cn1)NCCC(c1cc(Cl)cc(Cl)c1)c1ccccn1 (stereo not given)', 23.4),
  ('N=C(NCCCc1c[nH]cn1)NCCC(c1cc(F)cc(F)c1)c1ccccn1 (stereo not given)', 112),
  ('N=C(NCCCc1c[nH]cn1)NCCC(c1ccccc1)c1ccccn1 (stereo not given)', 24.5);

What does the record list as Relative potency for N=C(NCCCc1c[nH]cn1)NCCC(c1ccccn1)c1ccccc1F (stereo not given) ?
28.8

What does the record list as Relative potency for N/C(=N\CCC(c1cccc(N)c1)c1ccccn1)NCCCc1c[nH]cn1 (stereo not given) ?
24

What does the record list as Relative potency for "N=C(NC/C=C(\c1ccc(F)cc1)c1ccccn1)NCCCc1c[nH]cn1" ?
29.5

What does the record list as Relative potency for N/C(=N\CCC(O)(c1ccc(F)cc1)c1ccccn1)NCCCc1c[nH]cn1 (stereo not given) ?
26.3

What does the record list as Relative potency for COc1ccc(C(CC/N=C(\N)NCCCc2c[nH]cn2)c2ccccn2)cc1 (stereo not given) ?
27.5
